These records show pKi for Carbonic anhydrase 2 (Homo sapiens).
pKi: −log10 of the molar value.
endpointLabel: pKi

1. NS(=O)(=O)c1ccc2c(c1)S(=O)(=O)CC2OCc1ccccc1 (stereo not drawn) :: 8.10
2. O=S1(=O)C=Cc2ccc(S(=O)(=O)NCC3CC3)cc21 :: 6.32
3. NS(=O)(=O)c1ccc2c(c1)S(=O)(=O)CC2 :: 8.06
4. NS(=O)(=O)c1ccc2c(c1)S(=O)(=O)C=C2 :: 8.12
5. CCCCOC1CS(=O)(=O)c2cc(S(N)(=O)=O)ccc21 (stereo not drawn) :: 8.20
6. CC1=CS(=O)(=O)c2cc(S(N)(=O)=O)ccc21 :: 8.08
7. CCNS(=O)(=O)c1ccc2c(c1)S(=O)(=O)C=C2 :: 6.36
8. NS(=O)(=O)c1ccc2c(c1)C=CS2(=O)=O :: 8.13

====

assayedSystem: Carbonic anhydrase 1 (Homo sapiens, UniProt P00915)
Sequence (P00915 whole entry): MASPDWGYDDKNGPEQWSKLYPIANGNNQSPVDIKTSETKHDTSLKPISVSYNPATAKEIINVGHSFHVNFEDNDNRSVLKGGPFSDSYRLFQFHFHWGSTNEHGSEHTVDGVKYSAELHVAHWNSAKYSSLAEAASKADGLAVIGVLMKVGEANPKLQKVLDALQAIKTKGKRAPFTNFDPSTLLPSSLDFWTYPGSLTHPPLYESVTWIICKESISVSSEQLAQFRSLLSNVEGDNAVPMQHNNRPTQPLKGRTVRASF
pKi: −log10 of the molar value.
Measured pKi, listed per entry for reference.
endpointLabel: pKi

1) CC1=CS(=O)(=O)c2cc(S(N)(=O)=O)ccc21 :: 7.07
2) NS(=O)(=O)c1ccc2c(c1)S(=O)(=O)CC2 :: 7.14
3) NS(=O)(=O)c1ccc2c(c1)S(=O)(=O)CC2OCc1ccccc1 (stereo not given) :: 6.86
4) CCCCOC1CS(=O)(=O)c2cc(S(N)(=O)=O)ccc21 (stereo not given) :: 6.98
